The measured values listed here are drawn from the supplement of paper PMC10307832.

Parameter relative viability: see the listing below.
Tested on: BEN
assay_remarks: relative viability (nuclei count vs DMSO), 5 days (fraction); higher = more cells survive
cond: first compound 0.5 µM
measured_attribute: relative viability

compound	measurement
COc1cc2nccc(Oc3ccc(NC(=O)Nc4cc(C)on4)c(Cl)c3)c2cc1OC [Tivozanib] + CS(=O)(=O)N1CCN(Cc2cc3nc(-c4cccc5[nH]ncc45)nc(N4CCOCC4)c3s2)CC1 [Pictilisib] (partner 1 µM)	0.505
COc1cc2nccc(Oc3ccc(NC(=O)Nc4cc(C)on4)c(Cl)c3)c2cc1OC [Tivozanib] + O=C(c1cc(Cc2n[nH]c(=O)c3ccccc23)ccc1F)N1CCN(C(=O)C2CC2)CC1 [Olaparib] (partner 8 µM)	0.888
